These entries and their values trace back to the supplement of paper PMC11865577.

# Tested on: G-clamp-N3 (biotin conjugate)
# assay-text: pull-down binding Z-score (relative to library population); higher = stronger binding
# measurement-context: RNA library: Library-1 (pre-miRNA loops + repeats)
// label = criterion met if pull-down binding Z-score is not less than 0.3, otherwise criterion not met

sequence-data	cat
AAGCUCUUGCAGUAGGUUU [hsa-mir-1206]	criterion not met
GAAGCUGUGAAGCCACAGAUGGGCUUU [hsa-mir-30a]	criterion met
AUGCAUGGCUGGUGGCGGCGUGCAG [hsa-mir-6722]	criterion met
CAGGUAGUUUUGGCAUGACUCUACUG [hsa-mir-20b]	criterion not met
CGCGGGCGGGUCCCAGGCUGGGCCCCUCGGAGGCCGGGUGCUCACUGCCCCGUCCCGG [hsa-mir-6789]	criterion met
UGUUUGUGUCUAAACUAUCAAACG [hsa-mir-122]	criterion not met
GCAGCCUUGC [hsa-mir-4298]	criterion met
